The reported numbers originate from paper PMC4897736.

Below is a list of entries, each paired with its recorded Kd value.
- system name: MAB21L1 (Homo sapiens, UniProt Q13394)
- Construct: full length
- Sequence (Q13394 whole entry): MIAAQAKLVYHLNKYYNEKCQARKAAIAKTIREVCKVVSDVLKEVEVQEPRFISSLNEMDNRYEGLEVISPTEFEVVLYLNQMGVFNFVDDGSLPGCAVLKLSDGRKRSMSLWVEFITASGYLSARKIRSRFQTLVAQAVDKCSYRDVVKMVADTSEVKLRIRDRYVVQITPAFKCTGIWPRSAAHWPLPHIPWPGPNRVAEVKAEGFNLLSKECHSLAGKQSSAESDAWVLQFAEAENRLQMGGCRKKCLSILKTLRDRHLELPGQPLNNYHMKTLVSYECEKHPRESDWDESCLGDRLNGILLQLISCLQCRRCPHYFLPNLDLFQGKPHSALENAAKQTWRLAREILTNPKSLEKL
- assay name: ITC, thermal shift
- Type: binding
Give the number; nM is assumed, so skip it.

[[record]]
structure_as_smiles = "Nc1ncnc2c1ncn2[C@@H]1O[C@H](COP(=O)(O)OP(=O)(O)O)[C@@H](O)[C@H]1O"
system_name = "MAB21L1 (Homo sapiens, UniProt Q13394)"
observable = "Kd"
endpoint_value = 3100


For the next question, use this compound.
*Q* Record `Nc1ncnc2c1ncn2[C@@H]1O[C@H](COP(=O)(O)OP(=O)(O)OP(=O)(O)O)[C@@H](O)[C@H]1O` : what is its Kd with MAB21L1 (Homo sapiens, UniProt Q13394)?
*A* 340
